# Read-out: Tissue plasminogen activator (tPA), PLAT (gene 5327)
# assaySummary: BSK_BE3C_tPA: BioMAP Diversity Plus: BE3C Assay for Tissue plasminogen activator (tPA) Biomarker Activity (AID 2283041);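 for Outcome: tPA level quantified by ELISA one day after compound addition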
# runParameters: primary human bronchial epithelial cells; actives raise or lower the signal
Activity calls are given as the source filed them. Rule for the calls: active = hit-call score of the fitted dose curve at least 0.9, where 1 is the maximum; inactive = score below 0.9.
Outcome codes: T = active, F = inactive

compound	cat
CCC(C)(C)c1ccc(O)c(C(C)(C)CC)c1	T
CCCCCCCCC(=O)NCc1ccc(O)c(OC)c1	F
CC(C)(C)CC(C)(C)c1ccc(O)cc1	T
CCC(=O)C(CC(C)N(C)C)(c1ccccc1)c1ccccc1 (stereo unspecified)	F
Cc1ccccc1N	F
CCCCC(CC)CO[N+](=O)[O-] (stereo unspecified)	F
CC(=O)C(Cl)C(=O)N(C)C (stereo unspecified)	T
COP(=S)(OC)Oc1cc(Cl)c(Cl)cc1Cl	F
CCOP(=S)(OCC)Oc1ccc(S(C)=O)cc1 (stereo unspecified)	F
C[C@@H]1C[C@@H]([C@H](O)CC2CC(=O)NC(=O)C2)C(=O)[C@@H](C)C1	T
COP(=S)(OC)Oc1ccc(S(=O)(=O)N(C)C)cc1	F
COP(=S)(OC)Oc1ccc(Sc2ccc(OP(=S)(OC)OC)cc2)cc1	T
COc1cc(OC)nc(NC(=O)NS(=O)(=O)c2ncccc2C(=O)N(C)C)n1	F
CC(=O)[O][Hg][c]1ccccc1	T
ClC1(Cl)C2(Cl)C3(Cl)C4(Cl)C(Cl)(Cl)C5(Cl)C3(Cl)C1(Cl)C5(Cl)C24Cl (stereo unspecified)	F
O=[N+]([O-])c1ccc(O)c([N+](=O)[O-])c1	F
ClCC(Cl)CCl	F
NC(=S)Nc1ccccc1	F
CC(C)CCCCCCOC(=O)c1ccccc1C(=O)OCCCCCCC(C)C	F
O=C(OC1CCCCC1)c1ccccc1C(=O)OC1CCCCC1	T
Oc1c(I)cc(I)cc1I	T
COC(=O)c1sccc1S(=O)(=O)NC(=O)Nc1nc(C)nc(OC)n1	F
O=C(O)CCC(F)(C(F)(F)F)C(F)(F)F	F
CC(C)(OO)c1ccccc1	F
CCOP(=S)(OCC)SCCS(=O)(=O)CC	F
NC(=O)O	F
O=C(Nc1ccc2[nH]ccc2c1)c1cc2cc(F)ccc2n1Cc1cccc(F)c1	T
CC(C)c1ccc(CO)cc1	F
Cn1sc(Cl)cc1=O	F
Nc1ccc(-c2ccc(N)c(Cl)c2)cc1Cl	F
O=[N+]([O-])c1ccc2c3c(cccc13)CC2	F
